So I've got a bunch of compounds here, and I need their TGI values.
test system: NCI-H522 lung; experiment: NCI tumour cell line growth inhibition, 48 h

Use these answered entries as a reference point.
compound	parameter	value observed
Brc1ccc(N=NN2CCCCC2)cc1	TGI	> 100 µM
Cc1cnoc1NC1=CC(=O)C(=O)c2ccccc21	TGI	> 100 µM
c1ccc(CNc2c3c(nc4ccccc24)CCC3)cc1	TGI	39.3 µM
COc1ccc(CCn2cnc3ccccc32)cc1	TGI	> 100 µM
N/N=C(\C(=O)Nc1c(Cl)cc([N+](=O)[O-])cc1Cl)C(c1cnc2ccc([N+](=O)[O-])cc2n1)[N+](=O)[O-] (stereo not given)	TGI	53.3 µM

Would you mind listing TGI for each of the following compounds?
1. CC1=C(C(=O)Nc2c(C)cccc2C)C(c2ccc3c(c2)OCO3)C(C(=O)Nc2c(C)cccc2C)=C(C)N1
2. CC(C)/C(Cl)=N/OC(=O)Nc1ccc(F)c(Cl)c1
3. COC(=O)N[C@H]1CCc2c(Br)c(OC)c(OC)c(OC)c2-c2ccc(SC)c(=O)cc21
4. CN1CC2=C(OC(N)=C(C#N)C2c2cccs2)/C(=C/c2cccs2)C1 (stereo not given)
5. COc1ccc(N[C@H](CS(=O)c2ccc(C)cc2)c2ccc(F)cc2)cc1 (stereo not given in full)

1. 31.7 µM
2. 3.01 µM
3. 1.22 µM
4. > 53 µM
5. > 100 µM

Would you mind listing TGI for each of the following compounds?
1. CCOc1ccccc1NC(=O)C(=O)CC(=O)c1c(C)n([O-])c2ccccc2[n+]1=O
2. CC(C)CCCC(C)[C@H]1CCC2[C@@H]3CCC4Cc5nc6c(nc5C[C@]4(C)C3CC[C@@]21C)CC1CC[C@@H]2C(C[C@@H](O)[C@@]3(C)C2C[C@@H]2OC4(CCC(C)CO4)C(C)[C@@H]23)[C@@]1(C)C6 (stereo not given in full)
3. O=P(O)(CCP(=O)(O)c1ccccc1)c1ccccc1

> 100 µM
> 100 µM
> 100 µM

###

test system: KM12 colon; test: NCI tumour cell line growth inhibition, 48 h
parameter: GI50

Use these answered entries as a reference point.
chemical string	GI50
COc1ccc2c(c1)/C(=C\c1c(C)nc3sc(C)cn13)C(=O)N2C	4.87 µM
CS(=O)(=O)CCNCc1nc(-c2ccc3ncnc(Nc4ccc(F)c(Cl)c4)c3c2)cs1	21.1 µM

We next turn to a different compound, shown below.
Identify measured GI50 corresponding to O=C(CSc1nc2ccccc2[nH]1)Nc1ccc(-c2nc3ccccc3s2)c(Cl)c1 2.67 µM

###

tested on: DMS 273 small cell lung; assay: NCI tumour cell line growth inhibition, 48 h
parameter: TGI

compound	TGI
Nn1c(-c2ccccc2)nc2ccc(Br)cc2c1=O	> 100 µM
CC(=O)O/C=C(/C=C/OC(C)=O)C(C/C=C(\C)C#CC=C(C)C)OC(C)=O (configuration not stated)	> 100 µM
Cc1nc2c(nc1C)C(=O)c1cc(O)ccc1C2=O	> 100 µM
COc1ccc2[nH]c3c(c2c1)CCN(C)CC3	> 100 µM
CN1CC[C@@H](c2c(O)cc(O)c3c(=O)cc(-c4ccccc4Cl)oc23)[C@@H](O)C1	0.32 µM

Would you mind listing TGI for each of the following compounds?
1. Cc1ccc(C(=O)N(C2CCCCC2)C2CCCCC2)cc1N=NN(C)C
2. COc1ccc2c3c1OC1CC(O)C=CC31CCN(C)C2 (configuration not stated)
3. CCCCOC(=O)CNC(=O)OCCCCC#CC#CCCCCOC(=O)NCC(=O)OCCCC
4. O=C1CC(O)C=C1Nc1ccc(Cl)cc1 (configuration not stated)
5. COc1ccc(C(=O)/C(Br)=C/C(=O)O)cc1
6. Cc1cc(C)nc(NS(=O)(=O)c2ccc(Nc3c4ccccc4nc4c(C(=O)Nc5ccc(S(=O)(=O)N=C(N)N)cc5)ccc(Cl)c34)cc2)n1
7. COc1cc(OC)c([C@@H]2OC(=O)C3C2C(=O)O[C@H]3c2cc(OC)c(OC)cc2OC)cc1OC (some centres not stated)

1. 31.4 µM
2. > 150 µM
3. > 100 µM
4. > 100 µM
5. 26.3 µM
6. > 100 µM
7. > 100 µM

Would you mind listing TGI for each of the following compounds?
1. O=C(CNc1nncs1)NO
2. Cn1c2c(c3ccccc31)CCN(CCCCN1CCc3c(n(C)c4ccccc34)C1=O)C2
3. CC1OC(OCC2OC(Oc3c(-c4ccc(O)cc4)oc4cc(O)cc(O)c4c3=O)C(OC3OCC(O)(CO)C3O)C(O)C2O)C(O)C(O)C1O (configuration not stated)
4. CCc1cccc(C(C)C)c1NC(=O)C(=O)C(Cc1nc2ccccc2[nH]c1=O)C(=O)OC (configuration not stated)
5. COc1cccc2cc(C)c(C(=O)c3ccccc3)nc12
6. CC1(C)OP23(NC(=O)OC2(C(F)(F)F)c2ccccc2O3)OC1(C)C (configuration not stated)
7. O=C(O)CSc1n[nH]c(-c2ccc(O)cc2)n1

> 100 µM
> 100 µM
> 100 µM
> 100 µM
> 100 µM
> 100 µM
> 100 µM

###

So I've got a bunch of compounds here, and I need their TGI values.
tested on: K-562 leukemia; assay: NCI tumour cell line growth inhibition, 48 h

compound	value observed
CC(C)(CN)CN	> 100 µM
CCCCOC(=O)C(=O)C(CCC(=O)c1ccc(C)cc1)C(=O)C=C(C)C (stereo not given)	> 100 µM
COc1ccc2c(c1)[nH]c(=O)c1c3cc(C)c(C)cc3cn21	0.14 µM
CCOC(=O)c1ccc(NC(=O)N2CC(C)OC(C)C2)cc1 (stereo not given)	> 100 µM

We next turn to a different compound, shown below.
Identify measured TGI corresponding to CC(=O)OC[C@H]1O[C@@H](O[C@H]2[C@H](OC(C)=O)C=CO[C@@H]2COC(C)=O)C(OC(C)=O)[C@H]2OC(C)(C)O[C@H]21 (stereo not given in full) > 100 µM

###

tested on: NCI-H522 lung; assay: NCI tumour cell line growth inhibition, 48 h; in the data active means GI50 below about 0.43 µM; inactive means the rest
Reply using exactly one outcome from Yes = active, No = inactive

compound	class
CNC(P(=O)([O-])[O-])P(=O)([O-])[O-].N.N.[Pt+2]	No
CCN(CC)CCOc1nc2ccc(OC)cc2c2c1-c1ccc(OC)cc1C2=O	Yes
COc1ccc2c(c1)/C(=C\c1c(C)nc3sc(C)cn13)C(=O)N2C	No

Now take the following compound into account.
For this compound, state the assay outcome: COc1cc(/C(C#N)=C/c2ccc3c(c2OC)OCO3)cc2c1OCO2 Yes

###

system: A498 renal; assay: NCI tumour cell line growth inhibition, 48 h
parameter: TGI

Use these answered entries as a reference point.
compound	TGI
CCOC(=O)c1ccc(NC(=O)N2CC(C)OC(C)C2)cc1 (stereo not drawn)	> 100 µM
O=P(O)(CCP(=O)(O)c1ccccc1)c1ccccc1	> 100 µM
Cc1c(-c2c(C)c3ccccc3n2S(=O)(=O)c2ccccc2)n(S(=O)(=O)c2ccccc2)c2ccccc12	> 100 µM
COc1cccc(N2C(=O)C3c4[nH]c5ccccc5c4C4c5ccccc5CCC4C3C2=O)c1 (stereo not drawn)	8.53 µM
N/N=C(\C(=O)Nc1c(Cl)cc([N+](=O)[O-])cc1Cl)C(c1cnc2ccc([N+](=O)[O-])cc2n1)[N+](=O)[O-] (stereo not drawn)	> 100 µM

Would you mind listing TGI for each of the following compounds?
1. O=C(c1ccccc1)C(C(=O)c1ccccc1)C1(O)C(=O)c2ccccc2C1=O
2. COc1cc(/C(C#N)=C/c2ccc3c(c2OC)OCO3)cc2c1OCO2

> 100 µM
0.785 µM

Identify measured TGI corresponding to C=CC[C@H]1[C@@H](O[Si](C)(C)C(C)(C)C)[C@H](n2ccc(=O)[nH]c2=O)O[C@@H]1CO[Si](C)(C)C(C)(C)C 7.83 µM

###

system: LOX IMVI melanoma; test: NCI tumour cell line growth inhibition, 48 h
So I've got a bunch of compounds here, and I need their TGI values.

Use these answered entries as a reference point.
compound	target	TGI
CC(=O)NCCCCNCCCNC(C)=O	LOX IMVI melanoma	> 100 µM
CCCCCc1cc(OC(=O)c2c(O)cc(OC)cc2CCCCC)cc(O)c1C(=O)O	LOX IMVI melanoma	33.1 µM
O=[N+]([O-])C1C(c2ccccc2)C12c1ccccc1-c1ccccc12 (stereo unspecified)	LOX IMVI melanoma	2.47 µM
OC(C1CCC=NN1C(O)(C(F)(F)F)C(F)(F)F)(C(F)(F)F)C(F)(F)F (stereo unspecified)	LOX IMVI melanoma	> 10 µM
COc1ccc(N(C(=O)Nc2ccc(Cl)c(Cl)c2)c2ccccc2)cc1	LOX IMVI melanoma	> 10 µM

We next turn to a different compound, shown below.
Identify measured TGI corresponding to Cc1c(C)c(C)c(-n2[nH]c(=O)n(C)c2=O)c(C)c1C > 100 µM
